experiment: protein stability index of a GFP-peptide fusion (GPS, HEK-293T) (PSI 1-6); higher = more stable; details: treatment: MLN4924 1 uM, 8 h; c terminus: native;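 further: 24-mer peptide tiles fused after GFP, lentivirally expressed, FACS-sorted into six equal bins by GFP/DsRed ratio, decoded by Illumina sequencing, PSI is the read-weighted mean bin number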
Below, each entry is listed alongside its reported protein stability index.
Reply with just the number.

These solved cases illustrate the format of a correct answer.
sequence.chain	observation.type	observed.value
SESNSATVEEPPTDPIPEDEKKE [SMARCE1]	protein stability index	5.41
DVTSLSSQLPDTPNSMVPSPVET [ISL2]	protein stability index	4.39
QNLLGFTPEELHAILGVQPDTED [ETS2]	protein stability index	4.85

Bench note: what protein stability index did DLVPKQAIQVQEADEAGWGGSGG [DLX1] show?
3.09

Now consider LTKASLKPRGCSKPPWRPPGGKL [SPACA9] and answer again.
3.35

And KIPGTGALASAAAAVSGSKAKAE [RTN2] ?
5.32

Item: QIKRKARNEGRNRRRQQVLPLKS [CDKL4]
3.44

// repeat for DNAVQGLRRHEILQWVLQTDSQQ [LRRC59] and report
3.44

====

assay: protein stability index of a GFP-peptide fusion (GPS, HEK-293T) (PSI 1-6); higher = more stable; settings: treatment: MLN4924 1 uM, 8 h; c terminus: a fixed tail appended
The following sequences are listed with their measured protein stability index values.
// keep it numeric: no unit symbol after the value

Worked examples follow.
sequence.chain	protein stability index
ALHIIVQYNRPISDFLTLHSIIIS [FEM1B]	2.37
TIQVHRRYWRSLRVMKVEDREGPS [HDAC6]	3.14
PEEKIWEELSVLEVFEGREDSILG [MAGEA3]	4.67

What value of measured protein stability index is listed for HNQKVHMHMVDLMSSIICEGDTVS [PDS5B] ?
2.64

Further, for CEITKRRRKACQACRFTKCLRVGM [ESRRA] ?
2.32

Same lookup for HNIPLETIIPILQHLKYKEHPEAL [INTS3] , please.
2.55

Query DVKKLEEAGFHTVEAVAYAPKKEL [RAD51] next
4.91

And for VGSVALTALVTVSSEEFEDKWFRK [C8orf76] ?
2.35

Follow-up entry: YNNRGQIKYFRVDFYEAMDDYTSA [TTC32]
2.35

# iterate: VQEAVLDKWVNDPHRMDRRLLALI [GOLPH3]
2.52

Item: ICDKHWTAKNSRVVCGMFGFPGER [LOXL2]
2.42

Also LIKTIETRNGEVVTESQKEQRSEL [PRPH] , if possible.
4.67

====

experiment: protein stability index of a GFP-peptide fusion (GPS, HEK-293T) (PSI 1-6); higher = more stable; settings: treatment: DMSO; c terminus: a fixed tail appended
Values of protein stability index greater than or equal to 5 map to class 1; values below map to class 0.

sequence.chain	assigned.class
VAAGVLCELAQDKEAAEAIEAEGA [CTNNB1]	class 1
MKMEEAVGKVEELIESEAPPKASE [C18orf25]	class 1
LEPPTMRKKRLLDRKVLLKSDSPT [GOLPH3L]	class 0

protein stability index >= 5 for ETVSPLPSSMDLLIQDSPDSSTSP [NANOGP8] ?
class 1

Do the same for YVRMVFLALYVLFLADEEFDVVVC [ALG2] please
class 0

One more sequence: LSLQDQVDTLTFQSQSLRDRARRF [MTUS2]
class 0
